tested on: HeLa; assay: Antiproliferative activity against human HeLa cells by SRB assay; assay type: functional
endpoint.label: GI50

Some solved entries appear below for comparison.
INSERT INTO assay_data (compound, endpoint_label, observed_value) VALUES
  ('CCC[C@H]1O[C@H](COCc2ccccc2)[C@@H](OCc2ccccc2)[C@H](OCc2ccccc2)C1=O', 'GI50', '> 50 µM'),
  ('ClC1(Cl)[C@@H]2[C@@H](OCc3ccccc3)[C@H](OCc3ccccc3)[C@@H](COCc3ccccc3)O[C@@H]21', 'GI50', '> 50 µM'),
  ('OCC[C@@H]1O[C@H](COCc2ccccc2)[C@@H](OCc2ccccc2)[C@H](OCc2ccccc2)[C@H]1O', 'GI50', '30.2 µM'),
  ('O[C@@H]1[C@@H](OCc2ccccc2)[C@H](OCc2ccccc2)[C@@H](COCc2ccccc2)O[C@H]1c1ccccc1', 'GI50', '> 50 µM'),
  ('CCC[C@@H]1O[C@H](COCc2ccc3ccccc3c2)[C@@H](OCc2ccc3ccccc3c2)[C@H](OCc2ccc3ccccc3c2)[C@H]1O', 'GI50', '> 50 µM');

// each compound listed below needs its GI50
1. CC[C@H]1O[C@H](COCc2ccccc2)[C@@H](OCc2ccccc2)[C@H](OCc2ccccc2)[C@H]1O
2. CC(=O)OC[C@H]1O[C@@H](Cc2ccccc2)[C@H](OC(C)=O)[C@@H](OCc2ccccc2)[C@@H]1OC(C)=O

> 50 µM
> 50 µM

// each compound listed below needs its GI50
1. O[C@@H]1[C@@H](OCc2ccccc2)[C@H](OCc2ccccc2)[C@@H](COCc2ccccc2)O[C@H]1CC1CC1
2. c1ccc(COC[C@H]2O[C@@H](Cc3ccccc3)[C@H](OCc3ccccc3)[C@@H](OCc3ccccc3)[C@@H]2OCc2ccccc2)cc1
3. CC(=O)O[C@@H]1[C@@H](OC(C)=O)[C@H](Cc2ccccc2)O[C@H](COCc2ccccc2)[C@H]1OC(C)=O

> 50 µM
> 50 µM
> 50 µM

// each compound listed below needs its GI50
1. CC(C)C[C@@H]1O[C@H](COCc2ccccc2)[C@@H](OCc2ccccc2)[C@H](OCc2ccccc2)[C@@H]1O
2. CCCC[C@@H]1O[C@H](COCc2ccccc2)[C@@H](OCc2ccccc2)[C@H](OCc2ccccc2)[C@H]1O
3. CCCCOC[C@H]1O[C@@H](CCC)[C@H](O)[C@@H](OCCCC)C1OCCCC (stereo partly specified)
4. CCCCOC[C@H]1O[C@@H](CCC)C(=O)[C@@H](OCCCC)[C@@H]1OCCCC
5. C[C@@H]1O[C@H](COCc2ccccc2)[C@@H](OCc2ccccc2)[C@H](OCc2ccccc2)[C@H]1O
6. O[C@@H]1[C@@H](O)[C@H](Cc2ccccc2)O[C@H](COCc2ccccc2)[C@H]1OCc1ccccc1

1. 24.6 µM
2. > 50 µM
3. > 50 µM
4. > 50 µM
5. > 50 µM
6. 47.9 µM
